Cited source for all entries: ChEMBL document CHEMBL4041516

# Tested on: SU-DHL10
# Method Summary: Antiproliferative activity against human SU-DHL10 cells measured after 72 hrs by alamar blue assay
# Assay type: functional, cell-based
# Experimental Parameters: SU-DHL10, 72 h
pIC50: −log10 of the molar value.

{"columns": ["Compound", "Value Prefix", "pIC50"],
 "data": [
  ["CC[C@H](Nc1ncnc2[nH]cnc12)c1nc2cccc(F)c2c(=O)n1-c1ccccc1", "<", 5.00],
  ["CC[C@H](Nc1nc(N)nc(N)c1C#N)c1nc2cccc(C#CCCCC(=O)N3CCOCC3)c2c(=O)n1-c1ccccc1", "=", 5.72],
  ["CC[C@H](Nc1nc(N)nc(N)c1C#N)c1nc2cccc(C#CCCCC(=O)N3CCCC3)c2c(=O)n1-c1ccccc1", "=", 5.74],
  ["Cc1nc(N)nc(N2CCC[C@H]2c2nc3cccc(C#CCCCC(=O)N4CCCC4)c3c(=O)n2-c2ccccc2)c1C#N", "=", 5.35],
  ["N#Cc1c(N)ncnc1N1CCC[C@H]1c1nc2cccc(C#CCCCC(=O)N3CCOCC3)c2c(=O)n1-c1ccccc1", "=", 5.62]
]}
